Each entry below lists one item and its recorded pIC50 value.
- Subject Of Test: JAK1 (Homo sapiens (Human))
- Protocol Details: Analysis of JAK1 activity inhibition ability (ADP-Glo Kinase Assay)
- Format: biochemical
- Condition Info: JAK1 enzyme, ADP-Glo luminescence, ATP 250 uM, IRS-itide substrate, 30° C. 40 minutes; read-out: IC50
pIC50: −log10 of the molar value.

**Q:** # get_value(readout='pIC50', item= "O=C(Nc1ccc(-c2nc(NC(=O)C3CC3)nc3[nH]ccc23)cc1)NC1CC1" )
**A:** < 6.70

**Q:** Lookup "Cn1cncc1S(=O)(=O)Nc1ccc(-c2cc(NC(=O)C3CC3)nc3[nH]ccc23)cc1"
**A:** 6.70 to 7.70

**Q:** Lookup "CCNC(=O)Nc1ccc(-c2cc(NC(=O)C3CC3)nc3[nH]ccc23)cc1"
**A:** 6.70 to 7.70

**Q:** Lookup "CCCCNC(=O)Nc1ccc(-c2cc(NC(=O)C3CC3)nc3[nH]ccc23)cc1"
**A:** 6.70 to 7.70

**Q:** Lookup "O=C(Nc1cc(-c2ccc(NS(=O)(=O)N3CCCCC3)cc2)c2cc[nH]c2n1)C1CC1"
**A:** > 7.70

---

- Subject Of Test: JAK1 (Homo sapiens (Human))
- Protocol Details: Analysis of JAK1 activity inhibition ability (ADP-Glo Kinase Assay)
- Assay type: biochemical
- Condition Info: JAK1 enzyme, ADP-Glo luminescence, ATP 250 uM, IRS-itide substrate, 30° C. 40 minutes; read-out: IC50
Each entry below lists one item and its recorded IC50 value.

O=C(Nc1cc(C2=CCN(C(=O)c3cnon3)CC2)c2cc[nH]c2n1)C1CC1 [Example 286] = 20 to 200 nM
NC(=O)c1ccc(S(=O)(=O)Nc2ccc(-c3cc(NC(=O)C4CC4)nc4[nH]ccc34)cc2)cc1 [Example 17] = 20 to 200 nM
O=C(Nc1nc(-c2ccc(CNc3ccc(F)cc3)cc2)c2nc[nH]c2n1)C1CC1 [Example 597] = > 200 nM
N#CCNC(=O)C1CC=C(c2cc(NC(=O)C3CC3)nc3[nH]ccc23)CC1 (centres unmarked) [Example 530] = 20 to 200 nM
CC(C)(C)OC(=O)N1CCN(c2cc(NC(=O)C3CC3)nc3[nH]ccc23)CC1 [Example 692] = > 200 nM

**Q:** # get_value(readout='IC50', item= CCS(=O)(=O)N1CCC(n2cc(-c3cc(NC(=O)C4CC4)nc4[nH]ccc34)cn2)CC1 [Example 608] )
**A:** 20 to 200 nM

**Q:** Lookup O=C(Nc1cc(C2=CCC(NS(=O)(=O)c3ccc(F)c(F)c3)CC2)c2cc[nH]c2n1)C1CC1 (centres unmarked) [Example 162]
**A:** < 20 nM

**Q:** Lookup CN(C1CC1)S(=O)(=O)Nc1ccc(-c2cc(NC(=O)C3CC3)nc3[nH]ccc23)cc1 [Example 217]
**A:** < 20 nM

---

Each entry below lists one item and its recorded pIC50 value.
- Subject Of Test: JAK1 (Homo sapiens (Human), UniProt P23458)
- Sequence (P23458 whole entry): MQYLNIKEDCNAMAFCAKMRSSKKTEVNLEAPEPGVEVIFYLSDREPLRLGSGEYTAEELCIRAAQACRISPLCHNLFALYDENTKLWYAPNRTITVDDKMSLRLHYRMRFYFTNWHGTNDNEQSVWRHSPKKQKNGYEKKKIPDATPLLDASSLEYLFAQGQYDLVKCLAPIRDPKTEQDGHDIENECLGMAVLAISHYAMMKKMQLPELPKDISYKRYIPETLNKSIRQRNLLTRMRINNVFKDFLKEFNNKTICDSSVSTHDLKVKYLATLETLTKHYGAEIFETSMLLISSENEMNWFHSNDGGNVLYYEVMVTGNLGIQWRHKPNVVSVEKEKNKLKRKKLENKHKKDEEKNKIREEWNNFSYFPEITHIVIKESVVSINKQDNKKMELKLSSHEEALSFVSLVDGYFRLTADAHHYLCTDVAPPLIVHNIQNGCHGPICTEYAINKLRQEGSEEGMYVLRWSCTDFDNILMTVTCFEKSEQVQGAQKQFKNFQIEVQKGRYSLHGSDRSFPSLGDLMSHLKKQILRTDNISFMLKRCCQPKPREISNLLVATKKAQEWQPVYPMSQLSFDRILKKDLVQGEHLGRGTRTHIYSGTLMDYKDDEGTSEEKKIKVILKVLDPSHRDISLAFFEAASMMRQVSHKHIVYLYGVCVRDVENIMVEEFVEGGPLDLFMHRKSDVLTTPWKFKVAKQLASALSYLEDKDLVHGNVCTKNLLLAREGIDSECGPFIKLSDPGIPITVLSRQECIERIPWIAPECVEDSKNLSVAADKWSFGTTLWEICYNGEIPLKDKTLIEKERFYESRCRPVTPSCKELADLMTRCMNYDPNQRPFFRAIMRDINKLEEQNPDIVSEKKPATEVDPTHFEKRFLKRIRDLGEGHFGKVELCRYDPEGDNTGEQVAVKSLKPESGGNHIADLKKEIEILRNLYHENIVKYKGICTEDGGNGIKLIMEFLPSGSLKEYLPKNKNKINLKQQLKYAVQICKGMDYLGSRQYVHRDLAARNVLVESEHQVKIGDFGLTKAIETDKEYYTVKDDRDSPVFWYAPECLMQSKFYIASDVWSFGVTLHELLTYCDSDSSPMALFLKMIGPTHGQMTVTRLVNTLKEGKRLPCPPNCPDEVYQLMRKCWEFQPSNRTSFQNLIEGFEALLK
- Protocol Details: Analysis of JAK1 activity inhibition ability (ADP-Glo Kinase Assay)
- Type: biochemical
- Condition Info: JAK1 enzyme, ADP-Glo luminescence, ATP 250 uM, IRS-itide substrate, 30° C. 40 minutes; read-out: IC50
pIC50: −log10 of the molar value.

Example entries and their recorded answers appear below.
CC1CN(C(=O)OC(C)(C)C)CC=C1c1cc(NC(=O)C2CC2)nc2[nH]ccc12 (stereo not shown) = < 6.70
CCS(=O)(=O)Nc1ccc(-c2cc(NC(=O)C3CC3)nc3[nH]ccc23)nc1F = < 6.70

**Q:** # get_value(readout='pIC50', item= "O=C(Nc1cc(-c2ccc(NC3CN(C(=O)NCC(F)(F)F)C3)cc2)c2cc[nH]c2n1)C1CC1" )
**A:** < 6.70

**Q:** Lookup CC1CN(C(=O)c2ccncc2)CC=C1c1cc(NC(=O)C2CC2)nc2[nH]ccc12 (stereo not shown)
**A:** 6.70 to 7.70

---

- Subject Of Test: JAK1 (Homo sapiens (Human))
- Protocol Details: Analysis of JAK1 activity inhibition ability (ADP-Glo Kinase Assay)
- Assay type: biochemical
- Condition Info: JAK1 enzyme, ADP-Glo luminescence, ATP 250 uM, IRS-itide substrate, 30° C. 40 minutes; read-out: IC50
pIC50: −log10 of the molar value.
Each entry below lists one item and its recorded pIC50 value.

**Q:** Give JAK1 (Homo sapiens (Human)) pIC50 for CC1CN(C(=O)CC(=O)N2CCOCC2)CC=C1c1cc(NC(=O)C2CC2)nc2[nH]ccc12 (centres unmarked)
**A:** 6.70 to 7.70

---

- Subject Of Test: JAK1 (Homo sapiens (Human), UniProt P23458)
- Protocol Details: Analysis of JAK1 activity inhibition ability (ADP-Glo Kinase Assay)
- Format: biochemical
- Condition Info: JAK1 enzyme, ADP-Glo luminescence, ATP 250 uM, IRS-itide substrate, 30° C. 40 minutes; read-out: IC50
pIC50: −log10 of the molar value.
Each entry below lists one item and its recorded pIC50 value.

Example entries and their recorded answers appear below.
O=C(Nc1cc(C2=CCN(Cc3ccns3)CC2)c2cc[nH]c2n1)C1CC1 = > 7.70
CCS(=O)(=O)Nc1ccc(-c2cc(N/C(=N\C)C3CC3)nc3[nH]ccc23)cc1 = < 6.70
O=C(Nc1nc(-c2ccc(NCc3ccc(F)cc3)cc2)c2cc[nH]c2n1)C1CC1 = > 7.70
O=C(Nc1cc(-c2cnn(CC3CC3)c2)c2cc[nH]c2n1)C1CC1 = > 7.70
CCCS(=O)(=O)Nc1ccc(-c2cc(NC(=O)C3CC3)nc3[nH]ccc23)cc1 = > 7.70
Cc1cc(C(=O)N2CC=C(c3cc(NC(=O)C4CC4)nc4[nH]ccc34)C(C)C2)ccn1 (stereo not shown) = 6.70 to 7.70
O=C(Nc1cc(-c2ccc(C(F)(F)C(=O)N3CCOCC3)cc2)c2cc[nH]c2n1)C1CC1 = 6.70 to 7.70
O=C(Nc1cc(C2=CCC(NC(=O)C3CC3)CC2)c2cc[nH]c2n1)C1CC1 (stereo not shown) = 6.70 to 7.70

**Q:** Give JAK1 (Homo sapiens (Human), UniProt P23458) pIC50 for CCCS(=O)(=O)N1C2C=C(c3cc(NC(=O)C4CC4)nc4[nH]ccc34)CC1CC2 (stereo not shown)
**A:** 6.70 to 7.70

**Q:** Lookup "CCS(=O)(=O)Nc1ccc(-c2cc(NC(=O)C3CC3)nc3[nH]ccc23)cc1F"
**A:** > 7.70

**Q:** Lookup "O=C(Nc1cc(-c2ccc(CCN3CCS(=O)(=O)CC3)cc2)c2cc[nH]c2n1)C1CC1"
**A:** 6.70 to 7.70

**Q:** Lookup CC1CN(C(=O)c2cc(Cl)nc(Cl)c2)CC=C1c1cc(NC(=O)C2CC2)nc2[nH]ccc12 (stereo not shown)
**A:** 6.70 to 7.70

**Q:** Lookup "O=C(Nc1cc(C2=CCN(S(=O)(=O)NCC(F)(F)F)CC2)c2cc[nH]c2n1)C1CC1"
**A:** 6.70 to 7.70

**Q:** Lookup "O=C(Nc1cc(-c2ccc(NS(=O)(=O)C3CC3)c(-c3ccccc3)c2)c2cc[nH]c2n1)C1CC1"
**A:** < 6.70

**Q:** Lookup CC(c1ccc(-c2cc(NC(=O)C3CC3)nc3[nH]ccc23)cc1)N1CCS(=O)(=O)CC1 (stereo not shown)
**A:** > 7.70

**Q:** Lookup CC1CN(C(=O)CCC#N)CC=C1c1cc(NC(=O)C2CC2)nc2[nH]ccc12 (stereo not shown)
**A:** > 7.70

---

- Subject Of Test: JAK1 (Homo sapiens (Human), UniProt P23458)
- Protocol Details: Analysis of JAK1 activity inhibition ability (ADP-Glo Kinase Assay)
- Assay type: biochemical
- Condition Info: JAK1 enzyme, ADP-Glo luminescence, ATP 250 uM, IRS-itide substrate, 30° C. 40 minutes; read-out: IC50
Parameter Measured: IC50

Example entries and their recorded answers appear below.
O=C(Nc1cc(-c2ccc(NC3CCN(C(=O)c4cc(F)cc(F)c4)CC3)c(F)c2)c2cc[nH]c2n1)C1CC1 [Example 499] = > 200 nM
CC(C)(C)OC(=O)N1CCN(C(=O)Cc2ccc(-c3cc(NC(=O)C4CC4)nc4[nH]ccc34)cc2)CC1 [Example 554] = 20 to 200 nM
CCOCCS(=O)(=O)Nc1ccc(-c2cc(NC(=O)C3CC3)nc3[nH]ccc23)cc1 [Example 53] = 20 to 200 nM
CCCS(=O)(=O)Nc1ccc(-c2cc(NC(=O)C3CC3)nc3[nH]ccc23)cc1Cl [Example 63] = 20 to 200 nM
O=C(Nc1cc(C2=CCN(C(=O)c3ccno3)CC2)c2cc[nH]c2n1)C1CC1 [Example 288] = 20 to 200 nM
COC(=O)c1cc(NS(=O)(=O)CC2(C#N)CC2)ccc1-c1cc(NC(=O)C2CC2)nc2[nH]ccc12 [Example 142] = > 200 nM

**Q:** # get_value(readout='IC50', item= O=C(Nc1cc(C2CC3CCC(C2)N3S(=O)(=O)CCCF)c2cc[nH]c2n1)C1CC1 (centres unmarked) [Example 648] )
**A:** > 200 nM

**Q:** Lookup O=C(Nc1cc(C2=CCN(C(=O)C3CC3C(F)(F)F)CC2)c2cc[nH]c2n1)C1CC1 (centres unmarked) [Example 282]
**A:** 20 to 200 nM
